Below is a list of entries, each paired with its recorded normalized growth value.
assay: chemical genetic growth profiling, strain panel (AID 1159580);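 note: tested at 20 µM; growth read once vehicle control cultures reached saturation at 30 °C; 1 = growth at the plate median or of vehicle wells; lower values mean less growth of the strain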; settings: S. cerevisiae deletion strains, growth OD, locus YDR388W, stronger effect = lower value
Hit rate of the full screen: of about 5,500 compounds, about 2,000 (36%) were called active. Inconclusive results (about 18%) are left out. The list shows a part of the results.

- compound: "CN(C)CCOC(=O)C(c1ccccc1)C1(O)CCCC1 (stereo unspecified)"
  normalized growth: 1.01
- compound: "Clc1ccc2c(c1)C(N1CCNCC1)=Nc1ccccc1O2"
  normalized growth: 0.98
- compound: "CC(CN(C)C)CN1c2ccccc2Sc2ccccc21 (stereo unspecified)"
  normalized growth: 0.966
- compound: "C[C@H](N)[C@H](O)c1cccc(O)c1"
  normalized growth: 0.987
- compound: "C[C@H](CCC(=O)O)[C@H]1CCC2C3C(CC[C@@]21C)[C@@]1(C)CC[C@@H](O)C[C@H]1C[C@H]3O (stereo partly specified)"
  normalized growth: 1.04
- compound: "COc1cc(OC)c2c3c1C(=O)c1c(OC)cc(C)c4c(OC)cc(c-3c14)C(C)(C)C2=O"
  normalized growth: 0.989
- compound: "CN(C)CCOC(=O)COc1ccc(Cl)cc1"
  normalized growth: 1.03
- compound: "O=C(O)CCCOc1ccc(Cl)cc1Cl"
  normalized growth: 1.01
- compound: "CC(CN(C)C)CN1c2ccccc2CCc2ccccc21 (stereo unspecified)"
  normalized growth: 1.02
- compound: "CN1CCN(C2=Nc3ccccc3Oc3ccc(Cl)cc32)CC1"
  normalized growth: 0.994
- compound: "CCC(=O)c1ccc2c(c1)N(CC(C)N(C)C)c1ccccc1S2 (stereo unspecified)"
  normalized growth: 1

====

assay: chemical genetic growth profiling, strain panel (AID 1159580);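 note: tested at 20 µM; growth read once vehicle control cultures reached saturation at 30 °C; 1 = growth at the plate median or of vehicle wells; lower values mean less growth of the strain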; settings: S. cerevisiae deletion strains, growth OD, locus YDL101C, strain DUN1, stronger effect = lower value
Among all 5,500 compounds or so, about 2,000 (36%) were called active. About 18% were inconclusive and are not listed. The list shows a part of the results.
Below, each entry is listed with its recorded normalized growth.
value kind: normalized growth

- molecule: "COc1cc([C@H]2Oc3cc([C@H]4Oc5cc(O)cc(O)c5C(=O)[C@@H]4O)ccc3O[C@@H]2CO)ccc1O"
  test value: 0.989
- molecule: "Cc1c(S(=O)(=O)c2ccc(Cl)cc2)csc1C(=O)NNc1cccc(Cl)c1"
  test value: 0.978
- molecule: "Cc1c(S(=O)(=O)c2ccc(Cl)cc2)csc1C(=O)Nc1ccc(N2CCOCC2)c(Cl)c1"
  test value: 1.06
- molecule: "Cc1c(S(=O)(=O)c2ccc(Cl)cc2)csc1S(=O)(=O)N/N=C\\c1c(Cl)cccc1Cl"
  test value: 1.02
- molecule: "Cc1ccc(N2C(=O)CSC2c2ccc(Cl)c(Cl)c2)cc1Cl (stereo not given)"
  test value: 0.97
- molecule: "CN1CC(CNC(=O)OCc2ccccc2)CC2c3cccc4c3c(cn4C)CC21 (stereo not given)"
  test value: 0.978
- molecule: "O=C1/C(=C/c2ccc(C(F)(F)F)cc2)COc2ccccc21"
  test value: 0.946
- molecule: "O=C1CSC(c2ccc(Cl)c(Cl)c2)N1c1ccc(F)cc1 (stereo not given)"
  test value: 0.964
- molecule: "O=[N+]([O-])c1cccc(-c2csc(Nc3ccccc3Cl)n2)c1"
  test value: 0.978
- molecule: "O=C1CSC(c2ccc(C(F)(F)F)cc2)N1c1ccc(C(F)(F)F)cc1 (stereo not given)"
  test value: 1

Value source: PubChem BioAssay AID1159580
